ASSAY_SUMMARY: 1-octanol-phosphate buffer partition coefficient, log D of the compound at 100 uM at pH 7.4 after 24 hrs by shake-flask method
Type: physicochemical
Rule: logD at 24 h, 100 µM of 2 or more gives true; anything lower gives false.

Textbook exercise: given the entry Cc1cc(OCCCS(C)(=O)=O)cc(C)c1-c1cccc(COc2ccc(OCC(=O)O)c(F)c2)c1 , state whether its logD at 24 h, 100 µM is greater than or equal to 2. false

Test whether the molecule COc1cc(C)c(-c2cccc(COc3ccc(OCC(=O)O)c(F)c3)c2)c(C)c1 records logD at 24 h, 100 µM of 2 or higher. true

Check this molecule for logD at 24 h, 100 µM at or above 2: Cc1cc(OCCCS(C)(=O)=O)ccc1-c1cccc(COc2ccc(OCC(=O)O)c(F)c2)c1 false

// inclusive: logD at 24 h, 100 µM at least 2? input: CCOc1cc(C)c(-c2cccc(COc3ccc(OCC(=O)O)c(F)c3)c2)c(C)c1 true

Confirm if logD at 24 h, 100 µM reported for the molecule Cc1cc(OCCCS(C)(=O)=O)cc(C)c1-c1cccc(COc2ccc3c(c2)OC[C@H]3CC(=O)O)c1 is 2 or above. true

Next:
Decide: is the reported value of logD at 24 h, 100 µM for Cc1cc(OCCCO)cc(C)c1-c1cccc(COc2ccc(OCC(=O)O)c(F)c2)c1 equal to or greater than 2? true

Tell me whether logD at 24 h, 100 µM is at least 2 here: Cc1cc(O)cc(C)c1-c1cccc(COc2ccc(OCC(=O)O)c(F)c2)c1 true

# bool: logD at 24 h, 100 µM of COCCOc1cc(C)c(-c2cccc(COc3ccc(OCC(=O)O)c(F)c3)c2)c(C)c1 >= 2 true

I'd appreciate it if you could say whether CCCOc1cc(C)c(-c2cccc(COc3ccc(OCC(=O)O)c(F)c3)c2)c(C)c1 has logD at 24 h, 100 µM at least equal to 2. true

====

SYSTEM: Free fatty acid receptor 1 (Homo sapiens)
ASSAY_SUMMARY: Agonist activity at human FFA1 receptor expressed in CHO cells assessed as increase in intracellular calcium flux by FLIPR assay
ENDPOINT_LABEL: EC50 (µM)
// note: answer is a bare numeric in µM

Answered examples (6):
Field EC50 (entry COc1cc(C)c(-c2cccc(COc3ccc(OCC(=O)O)c(F)c3)c2)c(C)c1 ) reads 0.0497

The recorded EC50 for Cc1cc(O)cc(C)c1-c1cccc(COc2ccc(OCC(=O)O)c(F)c2)c1 is 0.11

The compound listed as Cc1cc(OCCCS(C)(=O)=O)ccc1-c1cccc(COc2ccc(OCC(=O)O)c(F)c2)c1 shows EC50 equal to 0.0436

Lab book: EC50 of CCOc1cc(C)c(-c2cccc(COc3ccc(OCC(=O)O)c(F)c3)c2)c(C)c1 noted as 0.0659

// Cc1cc(OCCCO)cc(C)c1-c1cccc(COc2ccc(OCC(=O)O)c(F)c2)c1 : EC50 value = 0.11

The compound CCCOc1cc(C)c(-c2cccc(COc3ccc(OCC(=O)O)c(F)c3)c2)c(C)c1 showed EC50 equal to 0.106

Next, consider the following compound.
The recorded EC50 for entry COCCOc1cc(C)c(-c2cccc(COc3ccc(OCC(=O)O)c(F)c3)c2)c(C)c1 equals 0.104

====

SYSTEM: Free fatty acid receptor 1 (Homo sapiens)
ASSAY_SUMMARY: Agonist activity at human FFA1 receptor expressed in CHO cells assessed as increase in intracellular calcium flux at 100 nM by FLIPR assay relative to control
Assay type: functional, cell-based
Readings of Activity for the listed compounds
Lab book: enter the figure in %, no units written.

Past entries and their recorded results:
The recorded Activity for Cc1cc(OCC(=O)N2CCOCC2)cc(C)c1-c1cccc(COc2ccc(OCC(=O)O)c(F)c2)c1 is 18.4

Noted for Cc1cc(OCc2cccc(-c3c(C)cc(OCCCS(C)(=O)=O)cc3C)c2)ccc1N(CC(=O)O)C(=O)c1ccccc1 : its Activity reads 2.57

# compound Cc1cc(OCc2ccccc2)cc(C)c1-c1cccc(COc2ccc(OCC(=O)O)c(F)c2)c1 ; its Activity = 26.4

Activity in this record for Cc1cc(O)cc(C)c1-c1cccc(COc2ccc(OCC(=O)O)c(F)c2)c1 : 44.3

Measured Activity, Cc1cc(OCCOCc2ccccc2)cc(C)c1-c1cccc(COc2ccc(OCC(=O)O)c(F)c2)c1 : 23.6

For CCOc1cc(C)c(-c2cccc(COc3ccc(OCC(=O)O)c(F)c3)c2)c(C)c1 the compound record lists Activity as 53.1

Continuing:
For this compound ( CCCOc1cc(C)c(-c2cccc(COc3ccc(OCC(=O)O)c(F)c3)c2)c(C)c1 ), measured Activity is 47.9

Activity reported for this compound COc1cc(C)c(-c2cccc(COc3ccc(OCC(=O)O)c(F)c3)c2)c(C)c1 : 58.4

Notebook: Cc1cc(OCCCS(C)(=O)=O)cc(C)c1-c1cccc(COc2ccc(N(CC(=O)O)C(=O)c3ccccc3)cc2)c1 , Activity read as 23.5

Entry under test: COCCCOc1cc(C)c(-c2cccc(COc3ccc(OCC(=O)O)c(F)c3)c2)c(C)c1 . Its Activity was 38

Memo: Cc1cc(OCCCO)cc(C)c1-c1cccc(COc2ccc(OCC(=O)O)c(F)c2)c1 , reported Activity: 44.4

Data point: CC(=O)N(CC(=O)O)c1ccc(OCc2cccc(-c3c(C)cc(OCCCS(C)(=O)=O)cc3C)c2)cc1C ; Activity = 18.4

Looking up CC(=O)N(CC(=O)O)c1ccc(OCc2cccc(-c3c(C)cc(OCCCS(C)(=O)=O)cc3C)c2)cc1 , I see its Activity listed as 36.3

====

SYSTEM: Free fatty acid receptor 1 (Homo sapiens, UniProt O14842)
Sequence (O14842 whole entry): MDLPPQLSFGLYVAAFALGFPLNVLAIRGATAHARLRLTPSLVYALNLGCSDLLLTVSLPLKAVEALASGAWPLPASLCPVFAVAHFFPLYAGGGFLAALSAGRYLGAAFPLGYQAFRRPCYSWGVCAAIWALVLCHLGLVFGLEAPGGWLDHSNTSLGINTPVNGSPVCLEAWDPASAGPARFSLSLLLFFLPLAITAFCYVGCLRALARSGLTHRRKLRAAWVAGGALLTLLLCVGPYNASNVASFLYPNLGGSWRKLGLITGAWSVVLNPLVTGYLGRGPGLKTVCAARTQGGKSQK
ASSAY_SUMMARY: Agonist activity at human FFA1 receptor expressed in CHO cells assessed as increase in intracellular calcium flux at 100 nM by FLIPR assay relative to control
Type: functional, cell-based
# Lookup of reported Activity keyed by entry
Please make sure the unit comes right after the number.

Below: 5 compounds and their reported Activity.
Log: Free fatty acid receptor 1 (Homo sapiens, UniProt O14842), compound COCCOc1cc(C)c(-c2cccc(COc3ccc(OCC(=O)O)c(F)c3)c2)c(C)c1 , Activity = 48.7%

The reported Free fatty acid receptor 1 (Homo sapiens, UniProt O14842) Activity of Cc1cc(OCC(=O)N(C)C)cc(C)c1-c1cccc(COc2ccc(OCC(=O)O)c(F)c2)c1 is 13.5%

// assay Free fatty acid receptor 1 (Homo sapiens, UniProt O14842), entry Cc1cc(OC(C)C)cc(C)c1-c1cccc(COc2ccc(OCC(=O)O)c(F)c2)c1 , Activity value = 36.9%

Form: item CCCCOc1cc(C)c(-c2cccc(COc3ccc(OCC(=O)O)c(F)c3)c2)c(C)c1 ; test system Free fatty acid receptor 1 (Homo sapiens, UniProt O14842); Activity: 41.6%

For the compound Cc1cc(OCC(C)C)cc(C)c1-c1cccc(COc2ccc(OCC(=O)O)c(F)c2)c1 , the measured Activity on Free fatty acid receptor 1 (Homo sapiens, UniProt O14842) was 35.2%

***
Tested system Free fatty acid receptor 1 (Homo sapiens, UniProt O14842); Activity recorded for Cc1cc(OCCCS(C)(=O)=O)cc(C)c1-c1cccc(COc2ccc(N(CC(=O)O)C(=O)c3ccoc3)cc2)c1 was 28.9%

Bench note, Free fatty acid receptor 1 (Homo sapiens, UniProt O14842): Cc1cc(OCCCS(C)(=O)=O)ccc1-c1cccc(COc2ccc(OCC(=O)O)c(F)c2)c1 , Activity reads 61.3%
